B1: NP_009172.2 (parent)
chain: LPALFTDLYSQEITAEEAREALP

variants of: B1; test: protein stability index of a GFP-peptide fusion (GPS, HEK-293T) (PSI 1-6); higher = more stable; settings: c terminus: native;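 note: lentivirally expressed fusion library, cells FACS-sorted into six equal-sized GFP/DsRed ratio bins, PSI computed from sequencing read fractions per bin weighted by bin number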
Hi, to clarify the labels: criterion met covers protein stability index from 3 upward, criterion not met covers anything below 3.

- R19M: criterion not met
- L4H: criterion met
- P23M: criterion not met
- A18V: criterion not met
- L8E: criterion met
- E20H: criterion not met
- T14H: criterion not met
- A3M: criterion not met
- E17C: criterion not met
- E12N: criterion met
- E16W: criterion not met
- Q11P: criterion met
- Y9Q: criterion met
- E16H: criterion not met
- L8T: criterion met
- Y9W: criterion not met
- Y9F: criterion not met
- Y9C: criterion not met
- A21E: criterion met
- S10I: criterion not met
- A21V: criterion not met
- R19T: criterion not met
- A21K: criterion not met
- Q11H: criterion not met
- D7Y: criterion not met
- P23F: criterion met
- A3E: criterion met
- F5D: criterion met
- L8C: criterion met
- I13D: criterion met
- S10T: criterion not met
- L4E: criterion met
- E12R: criterion not met
- L8D: criterion met
- E12G: criterion met
- A15H: criterion not met
- T6S: criterion not met
- E20S: criterion not met
- S10V: criterion not met
- Q11F: criterion not met
- T14A: criterion not met
- P23G: criterion met

Origin of measurements: the supplement of paper PMC10567573
